Data credit: PubChem BioAssay AID1159580

# measurement_protocol: chemical genetic growth profiling, strain panel (AID 1159580);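 also: tested at 20 µM; growth read once vehicle control cultures reached saturation at 30 °C; 1 = growth at the plate median or of vehicle wells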
# recorded_conditions: S. cerevisiae deletion strains, growth OD, locus YNR049C, strain mso1, stronger effect = lower value
About 2,000 (36%) of roughly 5,500 compounds were called active. About 18% were inconclusive and are not listed. The list shows a part of the results.
property_measured: normalized growth

Asked: # input compound: `CCCOc1ccc(C(=O)OCCN(CC)CC)cc1N` ; wanted: its normalized growth
Given back: 1 (inactive)

Asked: Can you check `O=C(O)CN1C(=O)c2cccc3cccc(c23)C1=O` next?
Given back: 0.981 (inactive)

Asked: Can you check `COc1c2ccoc2c(OC)c2oc(=O)ccc12` next?
Given back: 0.993 (inactive)

Asked: Can you check `CCCCC(=O)Oc1ccccc1C(=O)O` next?
Given back: 0.988 (inactive)

Asked: Can you check `COc1ccc(CCN2CCC(Nc3nc4ccccc4n3Cc3ccc(F)cc3)CC2)cc1` next?
Given back: 0.96 (inactive)

Asked: Can you check `CC1(C)O[C@H]2[C@H](O)C[C@](O)(C(N)=O)C[C@H]2O1` next?
Given back: 1.02 (inactive)

Asked: Can you check `CCCCOC(=O)c1ccc(N)cc1` next?
Given back: 0.905 (active)

Asked: Can you check `CCCCOC(=O)c1ccccc1C(=O)OCCCC` next?
Given back: 0.976 (inactive)

Asked: Can you check `Cn1c(=O)c2[nH]cnc2n(C)c1=O` next?
Given back: 1.02 (inactive)

Asked: Can you check `CCCCN(CCCC)CCCOC(=O)c1ccc(N)cc1` next?
Given back: 0.998 (inactive)

Asked: Can you check `O=C1NC(=O)C(=O)C(=O)N1` next?
Given back: 0.988 (inactive)

Asked: Can you check `O=C(Cn1ccnc1[N+](=O)[O-])NCCO` next?
Given back: 1.01 (inactive)

Asked: Can you check C=C1CCC2C(CC2(C)C)C(=O)CCC1O (stereo not drawn) next?
Given back: 0.995 (inactive)

====

# measurement_protocol: chemical genetic growth profiling, strain panel (AID 1159580);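 also: tested at 20 µM; growth read once vehicle control cultures reached saturation at 30 °C; 1 = growth at the plate median or of vehicle wells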
# recorded_conditions: S. cerevisiae deletion strains, growth OD, locus YER015W, strain faa2
Structures can show the parent of a compound that is named as a salt. Among all 5,500 compounds or so, about 2,000 (36%) were called active. About 18% were inconclusive and are not listed. Cut-off read from the data, not from the text of the source: active = normalized growth mostly below about 0.91 (no sharp cut-off); inconclusive = no clear call, values can overlap the other calls; inactive = mostly above about 0.92. Some of the results follow. Where a SMILES comes first, the peptide text is derived from it. The star is where a group is joined. Tfa = O=C(C(F)(F)F)*
Pick one: T (active), F (inactive)

Asked: Given `O=C(O)c1ccccc1-c1c2cc(Br)c(=O)cc-2oc2[c]([Hg])c(O)c(Br)cc12` , state the outcome it received in this test.
Given back: F

Asked: Can you check `COc1cc(OC)c2c(=O)c(-c3ccccc3)coc2c1` next?
Given back: F

Asked: Can you check `COc1cc2occ(-c3ccccc3)c(=O)c2c(OC)c1C` next?
Given back: F

Asked: Can you check `Cc1cccc(C)c1NC1=NCCCS1` next?
Given back: F

Asked: Can you check `Clc1cccc(Cl)c1NC1=NCCN1` next?
Given back: F

Asked: Can you check `O=C(O)CN(CC(=O)O)Cc1cc2c(-c3ccccc3C(=O)O)c3cc(CN(CC(=O)O)CC(=O)O)c(=O)cc-3oc2cc1O` next?
Given back: T

Asked: Can you check `CC(C)(C)CC(C)(C)c1ccc(O)c(Cc2ccc(Cl)cc2Cl)c1` next?
Given back: F

Asked: Can you check `Oc1ccc(Cl)cc1Cc1cc(Cl)ccc1O` next?
Given back: T

Asked: Can you check CC(C)C(NC(=O)C(Cc1ccc(O)cc1)NC(=O)C(NC(=O)C(F)(F)F)C(C)C)C(=O)O (stereo not drawn) (Tfa-Val-Tyr-Val-OH; configuration not given here) next?
Given back: F

Asked: Can you check `Oc1ccc(Cl)cc1` next?
Given back: F

====

# measurement_protocol: chemical genetic growth profiling, strain panel (AID 1159580);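 also: tested at 20 µM; growth read once vehicle control cultures reached saturation at 30 °C; 1 = growth at the plate median or of vehicle wells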
# recorded_conditions: S. cerevisiae deletion strains, growth OD, locus YNR049C, strain mso1
Structures can show the parent of a compound that is named as a salt. Among all 5,500 compounds or so, about 2,000 (36%) were called active. Not shown: some 18% with an inconclusive outcome. No stated cut-off is given here; in the data, active means normalized growth mostly below about 0.91 (no sharp cut-off); inconclusive means no clear call, values can overlap the other calls; inactive means mostly above about 0.92. Some of the results follow. Where a SMILES comes first, the peptide text is derived from it. The star is where a group is joined. Tfa = O=C(C(F)(F)F)*
Pick one: active, inactive

Asked: Given `CO/N=C(\C(=O)N[C@@H]1C(=O)N2C(C(=O)O)=C(CSc3nc(=O)c(O)nn3C)CS[C@H]12)c1csc(N)n1` , state the outcome it received in this test.
Given back: inactive

Asked: Can you check O=C1[C@H](CCC(O)c2ccc(F)cc2)[C@@H](c2ccc(O)cc2)N1c1ccc(F)cc1 (some centres undefined) next?
Given back: inactive

Asked: Can you check `Cc1cccc(C)c1NC1=NCCCS1` next?
Given back: inactive

Asked: Can you check C[C@@H]1C(=O)OC2[C@H](O)C34[C@@H]5OC(=O)[C@@]3(O[C@@H]3OC(=O)[C@H](O)[C@@]34[C@H](C(C)(C)C)[C@H]5O)[C@]21O (some centres undefined) next?
Given back: inactive

Asked: Can you check COC(=O)C(C)c1ccc(C(=O)c2cccs2)cc1 (centres undefined) next?
Given back: inactive

Asked: Can you check O=S1OCC2C(CO1)C1(Cl)C(Cl)=C(Cl)C2(Cl)C1(Cl)Cl (centres undefined) next?
Given back: inactive

Asked: Can you check COc1cc2c(cc1OC)C1Cc3ccc(OC)c(OC)c3CN1CC2 (centres undefined) next?
Given back: inactive

Asked: Can you check `Cc1ccc(Cl)c(Nc2ccccc2C(=O)O)c1Cl` next?
Given back: active

Asked: Can you check `COc1ccc2c(c1)O[C@H]1c3ccc(OC)cc3OC[C@@H]21` next?
Given back: inactive

Asked: Can you check COc1ccc2c(c1OC)C(=O)OC2[C@H]1c2c(cc3c(c2OC)OCO3)CCN1C (some centres undefined) next?
Given back: inactive

Asked: Can you check `CCOC(=O)Nc1nc2ccccc2[nH]1` next?
Given back: inactive

Asked: Can you check `CCOC(=O)c1ccc(O)cc1` next?
Given back: inactive

Asked: Can you check `Oc1ccc(Cl)cc1` next?
Given back: inactive

Asked: Can you check `OCCOCCN1CCN(C2=Nc3ccccc3Sc3ccccc32)CC1` next?
Given back: inactive

Asked: Can you check C#CCCCCCCCCCCCC(O)CC(O)COC(C)=O (centres undefined) next?
Given back: inactive

Asked: Can you check `CC(=O)N[C@@H](CS)C(=O)O` next?
Given back: inactive

Asked: Can you check `O=C(O)CN(CC(=O)O)Cc1cc2c(-c3ccccc3C(=O)O)c3cc(CN(CC(=O)O)CC(=O)O)c(=O)cc-3oc2cc1O` next?
Given back: inactive

Asked: Can you check `CC[N+](CC)(CC)CCOc1cccc(OCC[N+](CC)(CC)CC)c1OCC[N+](CC)(CC)CC` next?
Given back: inactive

Asked: Can you check `CC(=O)Oc1c(C)cccc1C(=O)O` next?
Given back: inactive

Asked: Can you check `Cc1coc2c1C(=O)C(=O)c1c-2ccc2c1CCCC2(C)C` next?
Given back: inactive

Asked: Can you check COC(=O)C(O)c1ccccc1 (centres undefined) next?
Given back: inactive

Asked: Can you check C=CCCCCCCCCCCCC(O)CC(O)COC(C)=O (centres undefined) (tested in a mixture with another compound) next?
Given back: inactive

Asked: Can you check `C[C@H]1COC2=C1C(=O)C(=O)c1c2ccc2c1CCCC2(C)C` next?
Given back: active

Asked: Can you check `C[C@H]1CC[C@@H](C(C)(C)O)CC2=C1CC[C@@H]2C` next?
Given back: inactive

Asked: Can you check CC(C)COCC(CN(Cc1ccccc1)c1ccccc1)N1CCCC1 (centres undefined) next?
Given back: inactive

Asked: Can you check `CC(C)NC[C@H](O)COc1cccc2ccccc12` next?
Given back: inactive

Asked: Can you check `OCc1ccccc1O` next?
Given back: inactive

Asked: Can you check CO/N=C(\C(=O)NC1C(=O)N2C(C(=O)O)=C(COC(N)=O)CSC12)c1ccco1 (centres undefined) next?
Given back: inactive

Asked: Can you check O=C(C1CCCCC1)N1CC(=O)N2CCc3ccccc3C2C1 (centres undefined) next?
Given back: inactive

Asked: Can you check `COc1cc2occ(-c3ccccc3)c(=O)c2c(OC)c1C` next?
Given back: inactive

Asked: Can you check C#CCCCCCCCCCCCC(O)CC(O)CO (centres undefined) next?
Given back: inactive

Asked: Can you check `CC(C)NNC(=O)c1ccncc1` next?
Given back: inactive

Asked: Can you check `NC(N)=NS(=O)(=O)c1ccc(N)cc1` next?
Given back: inactive

Asked: Can you check `CC[C@H](C)C(=O)O[C@H]1C[C@@H](C)C=C2C=C[C@H](C)[C@H](CC[C@@H]3C[C@@H](O)CC(=O)O3)[C@H]21` next?
Given back: inactive

Asked: Can you check CC1C[C@H]2CC(=O)[C@H]3CCCN4CCC[C@H]2[C@]34C1 (some centres undefined) next?
Given back: inactive

Asked: Can you check CC(C)C(NC(=O)C(Cc1ccc(O)cc1)NC(=O)C(NC(=O)C(F)(F)F)C(C)C)C(=O)O (stereo not drawn) (Tfa-Val-Tyr-Val-OH; configuration not given here) next?
Given back: inactive

Asked: Can you check C=C1CCC(C2CC(=O)OC2=O)C(=O)CCC2C1CC2(C)C (centres undefined) next?
Given back: inactive

Asked: Can you check `N[C@@H](CC(=O)N1CCn2c(nnc2C(F)(F)F)C1)Cc1cc(F)c(F)cc1F` next?
Given back: inactive

Asked: Can you check CC1=CC2C(CC1=O)C(C)=CCC2C(C)C (centres undefined) next?
Given back: inactive

Asked: Can you check `COc1cc(-c2coc3cc(OC)c(OC)c(OC)c3c2=O)cc(OC)c1OC` next?
Given back: inactive

Asked: Can you check CC(=O)OCC(OC(C)=O)C(OC(C)=O)C(OC(C)=O)C(OC(C)=O)C(COC(C)=O)OC(C)=O (centres undefined) next?
Given back: inactive

Asked: Can you check `O=c1cc(-c2ccccc2O)oc2cc(O)ccc12` next?
Given back: inactive

Asked: Can you check `Cc1c(S(=O)(=O)O)oc2c1C(=O)C(=O)c1c-2ccc2c1CCCC2(C)C` next?
Given back: inactive

Asked: Can you check CCCCN1CCCCC1C(=O)Nc1c(C)cccc1C (centres undefined) next?
Given back: inactive
